Experiment: in vivo
Design: species or system mice
Conditions: male, ob/ob, mouse
quantity kind: concentration at 25 days (ng/mL)
Please reply with the bare figure in ng/mL and do not write the unit itself.

Q: Which measured concentration at 25 days value corresponds to N[C@@H](Cc1cc(I)c(Oc2cc(I)c(O)c(I)c2)c(I)c1)C(=O)O ?
A: 90.4
